FYI, the data here is from ChEMBL document CHEMBL1133745.

Target: Glutamate NMDA receptor
Assay: Displacement of [3H]dichlorokynurenate ([3H]-DCKA) from N-methyl-D-aspartate glutamate receptor 1 in rat cortical membranes
ATTRIBUTE_MEASURED: log10 of IC50 (log10 of the value in nM)

compound="CC1(CC(=O)O)c2nc(O)c(O)nc2-c2cc(Cl)cc(Cl)c21 (centres undefined)" attribute_measured="log10 of IC50" assay_result=1.38
compound="CC1(CC(=O)O)c2ccc(Cl)c(Cl)c2-c2nc(O)c(O)nc21 (centres undefined)" attribute_measured="log10 of IC50" assay_result=3.41
compound="CC1(CC(=O)O)c2ccc(Cl)cc2-c2nc(O)c(O)nc21 (stereo in doubt; 10i)" attribute_measured="log10 of IC50" assay_result=1.45
compound="CC1(CC(=O)O)c2ccc(Cl)cc2-c2nc(O)c(O)nc21 (single isomer, unassigned; (-))" attribute_measured="log10 of IC50" assay_result=0.70
compound="CC1(CC(=O)O)c2cc(Cl)c(Cl)cc2-c2nc(O)c(O)nc21 (centres undefined)" attribute_measured="log10 of IC50" assay_result=2.15
compound="Cc1ccc2c(c1)-c1nc(O)c(O)nc1C2(C)CC(=O)O (centres undefined)" attribute_measured="log10 of IC50" assay_result=1.08
compound="CC1(CC(=O)O)c2ccc(F)cc2-c2nc(O)c(O)nc21 (centres undefined)" attribute_measured="log10 of IC50" assay_result=1.18
compound="CC1(CC(=O)O)c2ccccc2-c2nc(O)c(O)nc21 (centres undefined)" attribute_measured="log10 of IC50" assay_result=1.32
compound="CC1(CC(=O)O)c2ccc(OC(F)(F)F)cc2-c2nc(O)c(O)nc21 (centres undefined)" attribute_measured="log10 of IC50" assay_result=3.63
compound="O=C(O)C1Nc2cc(Cl)cc(Cl)c2S(=O)(=O)N1Cc1cccc(Br)c1 (centres undefined)" attribute_measured="log10 of IC50" assay_result=0.92
compound="CC1(CC(=O)O)c2ccc(Cl)cc2-c2nc(O)c(O)nc21 (single isomer, unassigned; (+))" attribute_measured="log10 of IC50" assay_result=1.64
compound="CC1(CC(=O)O)c2nc(O)c(O)nc2-c2cccc(Cl)c21 (centres undefined)" attribute_measured="log10 of IC50" assay_result=1.90
compound=O=c1[nH]c2cc(Cl)c(Cl)c([N+](=O)[O-])c2[nH]c1=O attribute_measured="log10 of IC50" assay_result=0.60
compound="CCCC1(CC(=O)O)c2ccc(Cl)cc2-c2nc(O)c(O)nc21 (centres undefined)" attribute_measured="log10 of IC50" assay_result=1.32

====

Molecular target: Glutamate receptor ionotropic, AMPA (Rattus norvegicus, UniProt P19490+P19491+P19492+P19493)
Experiment: Displacement of [3H]-AMPA from Ionotropic glutamate receptor AMPA of rat cortical membranes
pIC50: −log10 of the molar value.
# Lookup of reported pIC50 keyed by entry
ATTRIBUTE_MEASURED: pIC50

compound="CC1(CC(=O)O)c2ccc(Cl)cc2-c2nc(O)c(O)nc21 (stereo in doubt; 10i)" attribute_measured=pIC50 limit_qualifier== assay_result=5.68
compound="CC1(CC(=O)O)c2ccc(OC(F)(F)F)cc2-c2nc(O)c(O)nc21 (centres undefined)" attribute_measured=pIC50 limit_qualifier=< assay_result=5.00
compound="CC1(CC(=O)O)c2ccc(F)cc2-c2nc(O)c(O)nc21 (centres undefined)" attribute_measured=pIC50 limit_qualifier== assay_result=5.89
compound="CC1(CC(=O)O)c2ccc(Cl)cc2-c2nc(O)c(O)nc21 (single isomer, unassigned; (+))" attribute_measured=pIC50 limit_qualifier== assay_result=6.00
compound="CC1(CC(=O)O)c2nc(O)c(O)nc2-c2cccc(Cl)c21 (centres undefined)" attribute_measured=pIC50 limit_qualifier== assay_result=6.37
compound="CCCC1(CC(=O)O)c2ccc(Cl)cc2-c2nc(O)c(O)nc21 (centres undefined)" attribute_measured=pIC50 limit_qualifier== assay_result=5.15
compound="CC1(CC(=O)O)c2ccc(Cl)cc2-c2nc(O)c(O)nc21 (single isomer, unassigned; (-))" attribute_measured=pIC50 limit_qualifier== assay_result=5.00
compound="CC1(CC(=O)O)c2ccc(Cl)c(Cl)c2-c2nc(O)c(O)nc21 (centres undefined)" attribute_measured=pIC50 limit_qualifier=< assay_result=5.00
compound="O=c1[nH]c2cc(Cl)c(Cl)c([N+](=O)[O-])c2[nH]c1=O [LICOSTINEL]" attribute_measured=pIC50 limit_qualifier== assay_result=6.12
compound="O=C(O)C1Nc2cc(Cl)cc(Cl)c2S(=O)(=O)N1Cc1cccc(Br)c1 (centres undefined)" attribute_measured=pIC50 limit_qualifier=< assay_result=5.00
compound="CC1(CC(=O)O)c2nc(O)c(O)nc2-c2cc(Cl)cc(Cl)c21 (centres undefined)" attribute_measured=pIC50 limit_qualifier== assay_result=6.73
compound="CC1(CC(=O)O)c2ccccc2-c2nc(O)c(O)nc21 (centres undefined)" attribute_measured=pIC50 limit_qualifier== assay_result=5.34
compound="Cc1ccc2c(c1)-c1nc(O)c(O)nc1C2(C)CC(=O)O (centres undefined)" attribute_measured=pIC50 limit_qualifier== assay_result=5.35
compound="CC1(CC(=O)O)c2cc(Cl)c(Cl)cc2-c2nc(O)c(O)nc21 (centres undefined)" attribute_measured=pIC50 limit_qualifier== assay_result=5.74

====

Test system: Mus musculus
Assay: Compound was tested in vivo (intra peritoneally) in the mouse maximal electroshock convulsion test
Assay type: functional
Details: Mus musculus; read-out: ED50
ATTRIBUTE_MEASURED: ED50 (mg/kg)

compound=O=c1[nH]c2cc(Cl)c(Cl)c([N+](=O)[O-])c2[nH]c1=O study_target="Mus musculus" attribute_measured=ED50 limit_qualifier== assay_result=22.5
compound="Cc1ccc2c(c1)-c1nc(O)c(O)nc1C2(C)CC(=O)O (centres undefined)" study_target="Mus musculus" attribute_measured=ED50 limit_qualifier== assay_result=23
compound="CCCC1(CC(=O)O)c2ccc(Cl)cc2-c2nc(O)c(O)nc21 (centres undefined)" study_target="Mus musculus" attribute_measured=ED50 limit_qualifier== assay_result=1.8
compound="CC1(CC(=O)O)c2cc(Cl)c(Cl)cc2-c2nc(O)c(O)nc21 (centres undefined)" study_target="Mus musculus" attribute_measured=ED50 limit_qualifier=> assay_result=80
compound="CC1(CC(=O)O)c2nc(O)c(O)nc2-c2cc(Cl)cc(Cl)c21 (centres undefined)" study_target="Mus musculus" attribute_measured=ED50 limit_qualifier=> assay_result=80
compound="CC1(CC(=O)O)c2nc(O)c(O)nc2-c2cccc(Cl)c21 (centres undefined)" study_target="Mus musculus" attribute_measured=ED50 limit_qualifier== assay_result=80
compound="CC1(CC(=O)O)c2ccc(F)cc2-c2nc(O)c(O)nc21 (centres undefined)" study_target="Mus musculus" attribute_measured=ED50 limit_qualifier=> assay_result=80
compound="CC1(CC(=O)O)c2ccccc2-c2nc(O)c(O)nc21 (centres undefined)" study_target="Mus musculus" attribute_measured=ED50 limit_qualifier== assay_result=65
compound="CC1(CC(=O)O)c2ccc(Cl)c(Cl)c2-c2nc(O)c(O)nc21 (centres undefined)" study_target="Mus musculus" attribute_measured=ED50 limit_qualifier=> assay_result=80
